system: Phl p 5b-reactive T cell clones (TCCs) from allergic patients; assay: Proliferative reaction of Phl p 5b-reactive T cell clones ([3H]-thymidine incorporation); type: cell-based, human; conditions: T cell-reactive region C; final concentration 0.3 μM
Quantity: Incorporation of [3H]-thymidine, stimulation index SI, 1st exp.
Lab note: write the figure by itself, no unit.

Recorded results for 3 molecules are shown here.
Molecule: r Phl p 5b: recombinant wild type Phl p 5b, 265 amino acids, SEQ ID NO 87 (protein) ADAGYAPATPAAAGAAAGKATTEEQKLIEDINVGFKAAVAAAASVPAADKFKTFEAAFTSSSKAAAAKAPGLVPKLDAAYSVAYKAAVGATPEAKFDSFVASLTEALRVIAGALEVHAVKPVTEEPGMAKIPAGELQIIDKIDAAFKVAATAAATAPADDKFTVFEAAFNKAIKESTGGAYDTYKCIPSLEAAVKQAYAATVAAAPQVKYAVFEAALTKAITAMSEVQKVSQPATGAATVAAGAATTAAGAASGAATVAAGGYKV
Quantitative readout: 11.0
//
Molecule: rPhl p 5b deletion mutant DM3 (deletion A154-T177, A220T) (protein) ADAGYAPATPAAAGAAAGKATTEEQKLIEDINVGFKAAVAAAASVPAADKFKTFEAAFTSSSKAAAAKAPGLVPKLDAAYSVAYKAAVGATPEAKFDSFVASLTEALRVIAGALEVHAVKPVTEEPGMAKIPAGELQIIDKIDAAFKVAATAAGGAYDTYKCIPSLEAAVKQAYAATVAAAPQVKYAVFEAALTKTITAMSEVQKVSQPATGAATVAAGAATTAAGAASGAATVAAGGYKV
Quantitative readout: 9.8
//
Molecule: DM1: deletion mutant of rPhl p 5b (ΔK50-P132, D49→L), SEQ ID NO 91 (protein) ADAGYAPATPAAAGAAAGKATTEEQKLIEDINVGFKAAVAAAASVPAALAGELQIIDKIDAAFKVAATAAATAPADDKFTVFEAAFNKAIKESTGGAYDTYKCIPSLEAAVKQAYAATVAAAPQVKYAVFEAALTKAITAMSEVQKVSQPATGAATVAAGAATTAAGAASGAATVAAGGYKV
Quantitative readout: 8.6

Entry under review: rPhl p 5b point mutant PM3 (A13C) (protein) ADAGYAPATPAACGAAAGKATTEEQKLIEDINVGFKAAVAAAASVPAADKFKTFEAAFTSSSKAAAAKAPGLVPKLDAAYSVAYKAAVGATPEAKFDSFVASLTEALRVIAGALEVHAVKPVTEEPGMAKIPAGELQIIDKIDAAFKVAATAAATAPADDKFTVFEAAFNKAIKESTGGAYDTYKCIPSLEAAVKQAYAATVAAAPQVKYAVFEAALTKAITAMSEVQKVSQPATGAATVAAGAATTAAGAASGAATVAAGGYKV . Reported Incorporation of [3H]-thymidine, stimulation index SI, 1st exp.?
7.4
